Biological target: Vesicular glutamate transporter 3 (Rattus norvegicus)
Test: Compound was evaluated for the inhibition of Vesicular glutamate transporter (VGLUT)
measured.property: Ki

- O=C(O)c1cc(=O)c2ccccc2[nH]1 [TRANSTORINE]: 1300 µM

====

Target: Vesicular glutamate transporter 3 (Rattus norvegicus)
Assay: Inhibition of Vesicular glutamate transporter (VGLUT) by the ability to block the uptake of 250 uM of [3,4-3H]-L-glutamate into synaptic vesicles isolated from rat forebrain at equimolar conc. (250 uM )
Format: functional
Binarize Glutamate uptake remaining (% of control) at 80%; below is true (1), at or above is false (0).

* O=C(O)c1cc(C(=O)O)c2c(/C=C/c3ccccc3)cccc2n1 | true (1)
* O=C(O)c1cc(C(=O)O)c2cc(/C=C/c3ccccc3)ccc2n1 | true (1)
* COc1cc(OC)c2c(C(=O)O)cc(C(=O)O)nc2c1 | false (0)
* O=C(O)c1cc(C(=O)O)c2cc(/C=C/c3cccc4ccccc34)ccc2n1 | true (1)
* O=C(O)c1cc(C(=O)O)c2cc(OCc3ccccc3)ccc2n1 | false (0)
* O=C(O)c1cc(C(=O)O)c2ccc(CCc3ccccc3)cc2n1 | true (1)

====

Biological target: Vesicular glutamate transporter 3 (Rattus norvegicus)
Test: Evaluated for competitive inhibition against Vesicular glutamate transporter (VGLUT), and Ki value was reported.
Label Condition met when Ki is strictly below 0.2 µM; at or above that, label Condition not met.

* O=C(O)c1cc(O)c2cccc(O)c2n1 [XANTHURENATE] | Condition not met
* C=C(C[C@H](N)C(=O)O)C(=O)O | Condition not met
* N[C@]1(C(=O)O)CC[C@H](C(=O)O)C1 (relative stereo) | Condition not met
* Cc1cc(-c2ccc(/N=N/c3ccc4c(S(=O)(=O)O)cc(S(=O)(=O)O)c(N)c4c3O)c(C)c2)ccc1/N=N/c1ccc2c(S(=O)(=O)O)cc(S(=O)(=O)O)c(N)c2c1O | Condition met
* COc1cc(-c2ccc(/N=N/c3ccc4c(S(=O)(=O)O)cc(S(=O)(=O)O)c(N)c4c3O)c(OC)c2)ccc1/N=N/c1ccc2c(S(=O)(=O)O)cc(S(=O)(=O)O)c(N)c2c1O | Condition met
* O=C(O)c1cc(O)c2ccc(Cl)cc2n1 | Condition not met

====

Target: Vesicular glutamate transporter 3 (Rattus norvegicus)
Sequence (whole entry): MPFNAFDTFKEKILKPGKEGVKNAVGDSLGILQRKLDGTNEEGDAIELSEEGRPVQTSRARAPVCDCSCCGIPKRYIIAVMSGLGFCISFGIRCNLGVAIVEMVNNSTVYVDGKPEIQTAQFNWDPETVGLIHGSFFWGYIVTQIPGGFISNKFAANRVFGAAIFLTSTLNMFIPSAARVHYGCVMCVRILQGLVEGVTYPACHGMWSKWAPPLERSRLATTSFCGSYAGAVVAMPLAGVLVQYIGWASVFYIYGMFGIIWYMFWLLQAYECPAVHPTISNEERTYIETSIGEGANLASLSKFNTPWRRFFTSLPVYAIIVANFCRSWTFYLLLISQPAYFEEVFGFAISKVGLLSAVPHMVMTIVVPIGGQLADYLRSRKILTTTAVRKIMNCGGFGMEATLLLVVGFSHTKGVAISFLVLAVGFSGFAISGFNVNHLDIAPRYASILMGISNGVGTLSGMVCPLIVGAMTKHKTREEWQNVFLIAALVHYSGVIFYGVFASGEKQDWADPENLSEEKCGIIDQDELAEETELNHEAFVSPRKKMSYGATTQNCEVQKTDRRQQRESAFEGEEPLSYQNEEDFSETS
Assay: Inhibition of Vesicular glutamate transporter (VGLUT) by the ability to block the uptake of 250 uM of [3,4-3H]-L-glutamate into synaptic vesicles isolated from rat forebrain at a 20 fold excess (5 mM) of inhibitor
Type: functional
Reported Glutamate uptake remaining (% of control) by item:
measured.property: Glutamate uptake remaining (% of control) (%)

- COc1ccc2nc(C(=O)O)cc(C(=O)O)c2c1: 51
- O=C(O)c1cc(C(=O)O)c2cccc(O)c2n1: 2
- O=C(O)c1cc(C(=O)O)c2cc(OCc3ccccc3)ccc2n1: 3
- COc1cc2nc(C(=O)O)cc(C(=O)O)c2cc1OC: 58
- COc1cc(OC)c2nc(C(=O)O)cc(C(=O)O)c2c1: 40
- O=C(O)c1cc(C(=O)O)c2cc3c(cc2n1)OCCO3: 12
- O=C(O)c1cc(C(=O)O)c2cc(/N=N/c3ccccc3)ccc2n1: 0
- O=C(O)c1cc(C(=O)O)c2cccc(F)c2n1: 39
- COc1ccc(OC)c2c(C(=O)O)cc(C(=O)O)nc12: 62
- O=C(O)c1cc(C(=O)O)c2ccccc2n1: 38
- O=C(O)c1cc(C(=O)O)c2ccc(OCc3ccccc3)cc2n1: 1
- O=C(O)c1cc(C(=O)O)c2c(Br)cccc2n1: 11
- O=C(O)c1cc(C(=O)O)c2cc3c(cc2n1)OCO3: 24
- O=C(O)c1cc(C(=O)O)c2cc(Cl)ccc2n1: 1
- O=C(O)c1cc(C(=O)O)c2cccc(Br)c2n1: 7
- O=C(O)c1cc(C(=O)O)c2ccc(Cl)c(Cl)c2n1: 2
- O=C(O)c1cc(C(=O)O)c2cc(Br)ccc2n1: 2
- COc1cc(OC)c2c(C(=O)O)cc(C(=O)O)nc2c1: 15
- O=C(O)c1cc(C(=O)O)c2cc(I)ccc2n1: 10
- COc1cccc2c(C(=O)O)cc(C(=O)O)nc12: 20
- COc1ccc2c(C(=O)O)cc(C(=O)O)nc2c1: 48
- O=C(O)c1cc(C(=O)O)c2cc(Br)cc(Br)c2n1: 2
- O=C(O)c1cc(C(=O)O)c2c(F)cccc2n1: 54
